// provenance: patent US20240067655A1

Record form. Attribute: IC50. Fill in for each entry.
study_system: wt human TYK2, catalytic site (Homo sapiens)
Construct: wt human TYK2, catalytic site
Sequence (P29597 897-1176 limits assumed): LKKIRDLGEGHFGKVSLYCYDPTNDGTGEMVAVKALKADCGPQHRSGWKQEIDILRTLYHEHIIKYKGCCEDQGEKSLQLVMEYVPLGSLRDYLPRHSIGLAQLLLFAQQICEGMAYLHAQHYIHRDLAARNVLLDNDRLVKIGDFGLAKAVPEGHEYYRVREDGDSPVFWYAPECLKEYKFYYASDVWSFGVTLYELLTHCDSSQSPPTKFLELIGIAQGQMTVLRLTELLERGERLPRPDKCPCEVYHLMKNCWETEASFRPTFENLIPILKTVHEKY
test_details: HTRF KinEASE assay, TYK2 (Example 72)
condition_description: Example 72 text; read-out: IC50, Inhibitory Activity Toward TYK2

> print(dat)
                                   molecule                              study.system  measured.quantity         reading
1  Fc1cc2c3c(cnn3C(c3c(F)cccc3F)=Nc3c[nH]nc3-2)c1 [Compound 314]  wt human TYK2, catalytic site (Homo sapiens)               IC50  100 to 1000 nM

// next item, IC50 requested
Req: Any idea what its IC50 is? The molecule is Fc1cccc(F)c1C1=Nc2cn[nH]c2-c2cncc3ncn1c23 [Compound 303]
Resp: 100 to 1000 nM
